meta.source: ChEMBL document CHEMBL1159313

Listed here are compounds together with their documented IC50.
# Tested on: ABAE
# procedure.text: Cytotoxicity against ABAE cells after 48 hrs by microplate assay
# Assay type: functional, cell-based
# condition.info: Bos taurus
Respond numerically; units are mg/L and should not be typed.

Example entries begin here.
>  <compound>
C=CC(=C)CC[C@]1(C)[C@H]2C[C@H](OC(=O)C(C)CC)C=C3[C@H](OC(C)=O)O[C@H](OC(C)=O)[C@@]32[C@H](OC(C)=O)C[C@@H]1C (relative stereo)

>  <system>
ABAE

>  <assay.endpoint>
IC50

>  <reading>
4.1

$$$$
>  <compound>
C=C/C(C)=C/C[C@]1(C)[C@H]2C[C@H](OC(=O)C(C)CC)C=C3[C@H](OC(C)=O)O[C@H](OC(C)=O)[C@@]32[C@H](O)C[C@@H]1C (relative stereo)

>  <system>
ABAE

>  <assay.endpoint>
IC50

>  <reading>
0.8

$$$$
>  <compound>
C=C/C(C)=C/C[C@]1(C)[C@H]2C[C@H](OC(=O)C(C)CC)C=C3[C@H](OC(C)=O)O[C@H](OC(C)=O)[C@@]32[C@H](OC(C)=O)C[C@@H]1C (relative stereo)

>  <system>
ABAE

>  <assay.endpoint>
IC50

>  <reading>
3.6

$$$$

Exam item: I'd like to know its IC50. The compound in question is C=CC(=C)CC[C@]1(C)[C@H]2C[C@@H](OC(=O)C(C)CC)C=C3[C@H](OC(C)=O)O[C@H](OC(C)=O)[C@@]32[C@H](OC)C[C@@H]1C (relative stereo)
Marked response: 0.9

Exam item: Entry C=CC(=C)CC[C@]1(C)[C@H]2C[C@H](OC(=O)C(C)CC)C=C3[C@H](OC(C)=O)O[C@H](OC(C)=O)[C@@]32[C@H](OC)C[C@@H]1C (relative stereo) : reported IC50 = ?
Marked response: 0.8

Exam item: Form field: reported IC50 of C=CC(=C)CC[C@]1(C)[C@H]2C[C@H](OC(=O)C(C)CC)C=C3[C@H](OC(C)=O)O[C@H](OC(C)=O)[C@@]32[C@H](O)C[C@@H]1C (relative stereo)
Marked response: 0.8
